- System: horse cytochrome-C on HP Sepharose SP
- Test Description: Batch displacement assay, cytochrome-C on HP Sepharose SP
- Format: binding
- Protocol Conditions: input displacer concentration displacing 50% of bound protein; 50 mM phosphate, pH 6.0
Measured Attribute: log10(DC50) (log10 of the value in mM)
Please keep in mind that the values are log10 of DC50 expressed in mM.

Example entries and their recorded answers appear below.
Compound	log10(DC50)
NCCCNCCCCNCCCNC(=O)OC1CC(n2cnc3c(N)ncnc32)OC1CO (stereo not drawn)	1.09
COC1OC(COC(=O)NCCCNCCCCNCCCN)C(O)C(O)C1NC(=O)NCCCNCCCCNCCCN (stereo not drawn)	0.56
NCCNCCN [Diethylenetriamine, diethylenetriamine, reference compound]	1.03
NCCCNCCCCNCCCNC(=O)NCC1OC(OC2C(NC(=O)NCCCNCCCCNCCCN)CC(NC(=O)NCCCNCCCCNCCCN)C(OC3OC(CO)C(O)C(NC(=O)NCCCNCCCCNCCCN)C3O)C2O)C(O)C(O)C1O (stereo not drawn) [23c, kanamycin A tetraspermine]	0.00
COC1OC(CO)C(OC2OC(CNC(=O)NCCCNCCCCNCCCN)C(O)C(O)C2NC(=O)NCCCNCCCCNCCCN)C1O (stereo not drawn) [20b]	0.04

The record that follows has no log10(DC50) shown yet.
[ask] In one line, give reported log10(DC50) of the entry NCC1OC(OC2C(CO)OC(OC3C(O)C(N)CC(N)C3OC3OC(CN)C(O)C(O)C3N)C2O)C(N)C(O)C1O (stereo not drawn) [Neomycin, neomycin, reference compound] .
[reply] 0.45
